Attribution: patent US20080038257A1

# TESTED_SYSTEM: recombinant human HGF (R&D Systems, Catalog No. 294-HGN-025) (human, UniProt P14210 32-728)
# Sequence (P14210 32-728 limits assumed): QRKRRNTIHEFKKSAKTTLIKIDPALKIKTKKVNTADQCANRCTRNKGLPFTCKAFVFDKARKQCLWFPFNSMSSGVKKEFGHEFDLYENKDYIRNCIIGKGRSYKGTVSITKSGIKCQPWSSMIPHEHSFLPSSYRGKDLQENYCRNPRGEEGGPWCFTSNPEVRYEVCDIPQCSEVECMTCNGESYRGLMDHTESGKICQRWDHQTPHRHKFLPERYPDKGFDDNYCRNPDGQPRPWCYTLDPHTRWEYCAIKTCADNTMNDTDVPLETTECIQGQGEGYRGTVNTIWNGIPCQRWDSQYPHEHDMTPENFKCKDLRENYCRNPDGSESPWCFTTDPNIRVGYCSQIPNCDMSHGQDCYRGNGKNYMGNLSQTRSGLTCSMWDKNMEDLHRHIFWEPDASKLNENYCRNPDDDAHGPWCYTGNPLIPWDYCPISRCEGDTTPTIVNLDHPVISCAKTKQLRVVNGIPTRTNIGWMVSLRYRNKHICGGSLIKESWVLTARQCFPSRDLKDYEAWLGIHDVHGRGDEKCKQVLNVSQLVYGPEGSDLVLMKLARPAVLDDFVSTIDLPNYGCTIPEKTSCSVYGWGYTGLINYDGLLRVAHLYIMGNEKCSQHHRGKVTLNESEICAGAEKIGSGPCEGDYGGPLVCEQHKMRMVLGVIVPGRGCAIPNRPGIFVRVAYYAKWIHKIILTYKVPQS
# EXPERIMENTAL_PROTOCOL: cell-based or functional assay
OBSERVED_PROPERTY: IC50 (nM), HGF stimulated BrdU incorporation in 4MBr-5 cells
A complete answer gives the number followed by the unit.

BINDER: anti-hHGF monoclonal antibody 3B6 (antibody, mouse IgG1, kappa, V domains shown) VH: QVQLQQSGAELVRPGSSVKISCKASGYVFSSYWMNWVKQRPGQGLEWIGQIYPGDGDSNYNGNFKGKATLTADKSSSTAYMQLSSLTSEDSAVYFCASQLGLRENYFDYWGQGTTLTVSS VL: DIKMTQSPSSMYASLGERVTITCKASQDIKSYLSWFQQKPGKSPKTLIYRVNRLVDGVPSRFSGSGSGQDSSLTITSLENEDMGIYYCLQYDEFPFTFGGGTKLEIKR
ASSAY_RESULT: 36.1 nM

# next binder below
Task: Which measured IC50 (nM), HGF stimulated BrdU incorporation in 4MBr-5 cells value corresponds to anti-hHGF monoclonal antibody 3D11 (antibody, mouse IgG1, kappa, V domains shown) VH: QVQLKESGPGLVAPSQSLSITCTVSGFSLTSYSLHWVRQPPGKGLEWLGVIWAGGNTNYNSSLMSRLTIRKDNSKSQVFLKMNSLQTDDTAMYYCARERFAYWGQGTLVTVSA VL: QIVLTQSPAIMSAYPGEKVTMTCSASSSVSYMHWYQQKSGTSPKRWIYDTSKLASGVPARFSGSGSGTSYSLTISSMEAEDAATYYCQQWSSNPLTFGAGTKLELKR ?
Result: 51.1 nM
